- System: Immunoglobulin E (IgE) (Homo sapiens), P01854-1
- Sequence (P01854 other isoform, or with tags, fused parts or gaps): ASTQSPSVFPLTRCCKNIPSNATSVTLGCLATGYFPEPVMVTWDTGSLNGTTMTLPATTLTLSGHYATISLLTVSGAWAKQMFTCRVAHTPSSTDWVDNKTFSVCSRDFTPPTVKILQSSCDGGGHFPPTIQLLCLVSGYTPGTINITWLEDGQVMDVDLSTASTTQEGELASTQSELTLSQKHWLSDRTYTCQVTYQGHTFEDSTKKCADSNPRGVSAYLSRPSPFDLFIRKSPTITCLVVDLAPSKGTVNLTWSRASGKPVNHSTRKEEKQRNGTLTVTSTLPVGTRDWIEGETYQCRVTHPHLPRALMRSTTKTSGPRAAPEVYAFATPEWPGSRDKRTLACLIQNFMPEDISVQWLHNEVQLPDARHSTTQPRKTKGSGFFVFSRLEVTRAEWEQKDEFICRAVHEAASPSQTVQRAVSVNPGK
- MEASUREMENT NOTES: filter
- CONDITION SET: 2'-OMe at 1-8,33-37; 3' idT [2'-OMe: 1-8,33-37; 38 = 3' inverted dT]; DPBS Mg/Ca, BSA
ASSAY ENDPOINT: pKd
// pKd here means minus log10 of the molar concentration (mol/L)

[in] Find the recorded pKd belonging to GGGGCUACTTTATCCGTTCCTCCTAGTGGGTAGCCCC [ARC1388] and report it.
[out] 8.36

* * *

- Tested on: Immunoglobulin E (IgE) (Homo sapiens), P01854-1
- MEASUREMENT NOTES: filter
- CONDITION SET: 2'-OMe at 33; 3' idT; DPBS Mg/Ca, BSA
ASSAY ENDPOINT: pKd
Answer as the number alone; pKd is minus log10 of concentration in mol/L.

[in] Return reported pKd; argument: GGGGCTACTTTATCCGTTCCTCCTAGTGGGTAGCCCCN [ARC1297]
[out] 9.10
